ASSAYED TARGET: CDK6 (Homo sapiens)
Construct: endogenous in cells
Sequence (Q00534 whole entry): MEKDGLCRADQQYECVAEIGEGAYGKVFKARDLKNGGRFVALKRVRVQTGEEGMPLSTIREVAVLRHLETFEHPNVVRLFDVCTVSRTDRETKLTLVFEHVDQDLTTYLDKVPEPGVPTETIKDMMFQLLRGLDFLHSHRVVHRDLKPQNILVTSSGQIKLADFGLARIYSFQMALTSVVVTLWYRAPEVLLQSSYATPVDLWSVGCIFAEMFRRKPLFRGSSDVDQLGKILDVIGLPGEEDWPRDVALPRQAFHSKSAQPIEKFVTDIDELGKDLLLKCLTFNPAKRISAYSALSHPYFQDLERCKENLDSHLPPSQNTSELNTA
TEST DETAILS: CDK6 degradation (DC50, Dmax)
Assay type: cell-based
REPORTED ENDPOINT: Dmax

The following compounds have reported results that may help.
COMPOUND	Dmax
CC(=O)c1c(C)c2cnc(Nc3ccc(N4CCN(CCCN(C)c5ccc6c(c5)CN(C5CCC(=O)NC5=O)C6=O)CC4)cn3)nc2n(C2CCCC2)c1=O (stereo not shown)	> 60%
CC(=O)c1c(C)c2cnc(Nc3ccc(N4CCN(C(=O)CNc5ccc6c(c5)C(=O)N(C5CCC(=O)NC5=O)C6=O)CC4)cn3)nc2n(C2CCCC2)c1=O (stereo not shown)	> 60%
CC(=O)c1c(C)c2cnc(Nc3ccc(N4CCN(CC5CN(c6ccc(C(=O)NC7CCC(=O)NC7=O)cc6)C5)CC4)cn3)nc2n(C2CCCC2)c1=O (stereo not shown)	> 80%

Below are some compounds; for each one, tell me its Dmax.
1. CC(=O)c1c(C)c2cnc(Nc3ccc(N4CCN(C(=O)C5CCN(c6ccc(C(=O)NC7CCC(=O)NC7=O)cc6)CC5)CC4)cn3)nc2n(C2CCCC2)c1=O (stereo not shown)
2. CC(=O)c1c(C)c2cnc(Nc3ccc(N4CCN(CC5CCN(C(=O)N6CCC(C7CCN(c8ccc9c(c8)C(=O)N(C8CCC(=O)NC8=O)C9=O)CC7)CC6)CC5)CC4)cn3)nc2n(C2CCCC2)c1=O (stereo not shown)
3. CC(=O)c1c(C)c2cnc(Nc3ccc(N4CCN(C(=O)C5CN(c6ccc(NC7CCC(=O)NC7=O)cc6)C5)CC4)cn3)nc2n(C2CCCC2)c1=O (stereo not shown)
4. CC(=O)c1c(C)c2cnc(Nc3ccc(N4CCN(CC5CN(c6ccc(N7CCC(=O)NC7=O)cc6)C5)CC4)cn3)nc2n(C2CCCC2)c1=O
5. Cc1nc2c(F)cc(-c3nc(Nc4ccc(CN5CCN(CC6CN(c7ccc(NC8CCC(=O)NC8=O)cc7)C6)CC5)cn4)ncc3F)cc2n1C(C)C (stereo not shown)
6. Cc1nc2c(F)cc(-c3nc(Nc4ccc(CN5CCN(CC6CCN(c7ccc(N8CCC(=O)NC8=O)cc7)CC6)CC5)cn4)ncc3F)cc2n1C(C)C
7. CC(=O)c1c(C)c2cnc(Nc3ccc(N4CCN(CCCCNc5ccc6c(c5)CN(C5CCC(=O)NC5=O)C6=O)CC4)cn3)nc2n(C2CCCC2)c1=O (stereo not shown)

1. > 80%
2. > 50%
3. > 60%
4. > 80%
5. > 80%
6. > 80%
7. > 60%

Below are some compounds; for each one, tell me its Dmax.
1. Cc1nc2c(F)cc(-c3nc(Nc4ccc(CN5CCN(C(=O)C6CN(c7ccc8c(c7)C(=O)N(C7CCC(=O)NC7=O)C8=O)C6)CC5)cn4)ncc3F)cc2n1C(C)C (stereo not shown)
2. CC(=O)c1c(C)c2cnc(Nc3ccc(N4CCN(C(=O)C5CCN(c6ccc7c(c6)CN(C6CCC(=O)NC6=O)C7=O)CC5)CC4)cn3)nc2n(C2CCCC2)c1=O (stereo not shown)
3. CC(=O)c1c(C)c2cnc(Nc3ccc(N4CCN(C5CCN(c6ccc7c(c6)CN(C6CCC(=O)NC6=O)C7=O)CC5)CC4)cn3)nc2n(C2CCCC2)c1=O (stereo not shown)

> 60%
> 60%
> 80%
